Molecular target: T1, human mutCALR on BaF3 cells stably expressing human MPL and human mutCALR (MPL-mutCALR cells) (human)
T1 construct: also called mutant calreticulin
T1 chain: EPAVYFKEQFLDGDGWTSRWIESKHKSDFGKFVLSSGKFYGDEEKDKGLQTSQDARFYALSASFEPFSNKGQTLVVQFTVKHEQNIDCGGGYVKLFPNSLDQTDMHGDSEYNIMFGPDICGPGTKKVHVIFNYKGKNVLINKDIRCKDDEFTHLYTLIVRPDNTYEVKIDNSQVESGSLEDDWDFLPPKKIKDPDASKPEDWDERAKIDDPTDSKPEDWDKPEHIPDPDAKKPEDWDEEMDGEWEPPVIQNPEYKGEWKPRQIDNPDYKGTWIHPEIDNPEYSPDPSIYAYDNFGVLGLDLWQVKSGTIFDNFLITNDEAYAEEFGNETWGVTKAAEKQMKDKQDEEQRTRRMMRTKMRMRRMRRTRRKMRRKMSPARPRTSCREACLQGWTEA
Experiment: flow cytometry, BaF3 MPL-mutCALR cells
Kindly supply the reported MPL-mutCALR AUC values for the records listed here.
Numbers only.

anti-mutCALR antibody clone 42 (antibody, human IgG1, lambda, V domains shown, human IgG1) VH: EVQLVQSGAEVKKPGASVKVSCKVSGYTLTELSMHWVRQAPGKGLEWMGLVDPEDGETIYAQKFQGRVTMTEDTSTDTAYMELSSLRSEDTAVYYCAREEWSGDGDDAFDIWGQGTMVTVSS VL: QSVLTQPPSVSAAPGQKVTISCSGSSSNIGSYSVSWYQQLPGTAPKLLIYDDNKRPSGIPDRFSGSNSGTSATLSITGLQTGDEADYYCGTWDSSLSAWVFGGGTKLTVLG
61300
anti-mutCALR antibody clone 29 (antibody, human IgG1, lambda, V domains shown, human IgG1) VH: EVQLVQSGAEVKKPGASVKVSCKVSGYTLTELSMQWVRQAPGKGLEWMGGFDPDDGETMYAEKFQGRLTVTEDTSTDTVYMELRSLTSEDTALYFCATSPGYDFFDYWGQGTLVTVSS VL: SYVLTQPPSVSVAPGKTARITCGGNNIGSKSVHWYQQKPGQAPVLVVYDDSDRPSGIPERFSGSNSGNTATLTISRVEAGDEADYYCQVWDSSSDLLIFGGGAKLTVLG
77900

Please state, for each entry, its recorded MPL-mutCALR AUC.
1. anti-mutCALR antibody clone 142 (antibody, human IgG1, lambda, N297A, V domains shown) VH: EVQLVQSGAEVKKPGASVKVSCKVSGYTLTELSMQWVRQAPGKGLEWMGGFDPDEGETMYAEKFQGRLTVTEDTSTDTVYMELSSLRSEDTAVYFCATSPGYDFFDYWGQGTLVTVSS VL: SYVLTQPPSVSVAPGKTARITCGGDNIGSKSVHWYQQKPGQAPVLVVYDDSDRPSGIPERFSGSNSGNTATLTISRVEAGDEADYYCQVWDSSNDLLIFGGGTKLTVLG
2. anti-mutCALR antibody clone 138 (antibody, human IgG1, lambda, N297A, V domains shown) VH: EVQLVQSGAEVKKPGASVKVSCKVSGYTLTELSMQWVRQAPGKGLEWMGGFDPDDAETMYAEKFQGRLTVTEDTSTDTVYMELRSLTSEDTALYFCATSPGYDFFDYWGQGTLVTVSS VL: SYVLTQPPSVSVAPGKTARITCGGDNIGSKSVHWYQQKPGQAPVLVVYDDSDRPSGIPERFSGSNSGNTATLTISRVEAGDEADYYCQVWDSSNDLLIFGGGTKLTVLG
3. anti-mutCALR antibody clone 36 (antibody, human IgG1, lambda, V domains shown, human IgG1) VH: QVQLVQSGAEVKKPGATVKISCKVSGYSFTDYFIHWVQQAPGKGLAWVGLVDPEDGETIYAEKFQGRVTITADTSTDTAYMELSSLRSEDTAVYYCATPGGILTDPDAFDIWGQGTMVTVSS VL: QSALTQPRSVSGSPGQSVTISCAGTGSDVGGYNYVSWYQHHPGKAPKLMIYDVNKRPSGVPDRFSGSKSGNTASLTISGLQAEDEADYYCSSYTSSSTFYVFGTGTKVTVLG
4. anti-mutCALR antibody clone 125 (antibody, human IgG1, lambda, N297A, V domains shown) VH: EVQLVQSGAEVKKPGASVKVSCKVSGYTLTELSMQWVRQAPGKGLEWMGGFDPDAGETMYAEKFQGRLTVTEDTSTDTVYMELRSLTSEDTALYFCATSPGYDFFDYWGQGTLVTVSS VL: SYELTQPPSVSVAPGKTARITCGGDNIGSKSVHWYQQKPGQAPVLVVYDDSDRPSGIPERFSGSNSGNTATLTINRVEAGDEADYYCQVWDSSNDLLIFGGGTKLTVLG
5. anti-mutCALR antibody clone 136 (antibody, human IgG1, lambda, N297A, V domains shown) VH: EVQLVQSGAEVKKPGASVKVSCKVSGYTLTELSMQWVRQAPGKGLEWMGGFDPDSGETMYAEKFQGRLTVTEDTSTDTVYMELRSLTSEDTALYFCATSPGYDFFDYWGQGTLVTVSS VL: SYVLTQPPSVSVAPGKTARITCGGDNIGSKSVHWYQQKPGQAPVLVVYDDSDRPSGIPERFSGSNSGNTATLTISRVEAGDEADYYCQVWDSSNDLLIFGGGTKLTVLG
6. anti-mutCALR antibody clone 50 (antibody, human IgG1, lambda, V domains shown, human IgG1) VH: QMQLVQSGAEVKKPGSSVKVSCKASGGTFSSYAISWVRQAPGQGLEWMGGIIPIFGTANYAQKFQGRVTITADESTSTAYMELSSLRSEDTAVYYCASSPLRGSGWYWHYYYGMDVWGQGTTVTVSS VL: SYVLTQPPSVSVAPGKTARITCGGNNIGTKSVHWYQQKPGQSPVLVIYQDRKRPSGIPERFSGSNSGNTATLTISGTQAMDEADYYCQVWDSSTEVFGGGTKLTVLG
7. anti-mutCALR antibody clone 28 (antibody, human IgG1, lambda, V domains shown, human IgG1) VH: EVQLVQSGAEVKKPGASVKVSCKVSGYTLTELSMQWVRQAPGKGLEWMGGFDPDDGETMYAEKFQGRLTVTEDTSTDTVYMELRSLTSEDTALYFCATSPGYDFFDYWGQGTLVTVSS VL: SYELTQPPSVSVAPGQTARITCGGNNIGSKSVHWYQQKPGQAPVLVVYDDSDRPSGIPERFSGSNSGNTATLTISRVEAGDEADYYCQVWDADSDQLIFGGGTKLTVLG
8. anti-mutCALR antibody clone 2 (antibody, human IgG1, lambda, V domains shown, human IgG1) VH: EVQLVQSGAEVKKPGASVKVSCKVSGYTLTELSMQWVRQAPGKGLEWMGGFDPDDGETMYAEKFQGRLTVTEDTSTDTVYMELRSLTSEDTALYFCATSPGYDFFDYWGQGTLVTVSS VL: SYELTQPPSVSVAPGKTARITCGGDNIGSKSVHWYQQKPGQAPVLVVYDDSDRPSGIPERFSGSNSGNTATLTISRVEAGDEADYYCQVWDSSIDHLIFGGGTKVTVLG

**A:**
71100
85800
73800
62700
65000
36700
60400
60400
